Measured values drawn from patent US9914732B2 for this set.

Some compounds, each annotated with its measured pKi.
- tested.system: UniProt Q02790
- Sequence (Q02790 50-138 limits assumed): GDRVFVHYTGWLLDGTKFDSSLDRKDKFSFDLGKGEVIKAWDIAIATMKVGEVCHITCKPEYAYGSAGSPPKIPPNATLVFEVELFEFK
pKi: −log10 of the molar value.
assay.readout: pKi

> print(dat)
                                   compound    meas.value
1  COCCCN1CC(CO)C2CCCC(C1=O)N2S(=O)(=O)c1cc(Cl)cc(Cl)c1 (stereo in doubt)  6.00 to 6.30
2  COC[C@H]1CN(Cc2cnn[nH]2)C(=O)[C@@H]2CCC[C@H]1N2S(=O)(=O)c1cc(Cl)cc(C(N)=O)c1        ≥ 7.00
3  COC[C@H]1CN(Cc2cnn[nH]2)C(=O)[C@@H]2CCC[C@H]1N2S(=O)(=O)c1nc2ccccc2[nH]1        ≥ 7.00
4  C=CC1CN(Cc2ccccn2)C(=O)C2CCCC1N2S(=O)(=O)c1cccc(F)c1 (stereo in doubt)  6.30 to 7.00
5  O=C1NC[C@@H](O)[C@H]2CCC[C@@H]1N2S(=O)(=O)c1cc(Cl)cc(Cl)c1  5.30 to 6.00
